pIC50: −log10 of the molar value.
System: UniProt A0A287B475 | Read-out: pIC50
reported_property: pIC50

I: CCCOc1ccccc1-c1nc(NCc2ccc3c(c2)OCO3)c2cc(Cl)ccc2n1 [Example 83]
II: N#Cc1ccc2nc(N3CCC(C(=O)O)CC3)nc(NCc3ccc4c(c3)OCO4)c2c1 [Example 227]
III: CCCOc1ccccc1-c1nc(NCc2ccc3c(c2)OCO3)c2ccccc2n1 [Example 84]
IV: CCOC(=O)CCCN(C)c1nc(NCc2ccc(OC)c(Cl)c2)c2cc(C#N)ccc2n1 [Example 220]
V: COc1ccc2nc(O)nc(NCc3ccc4c(c3)OCO4)c2c1 [Example 140]
Highest to lowest pIC50: rank the entries shown above. Give your ranking as a list of the labels in the requested order.
IV, II, I, III, V

P: Cc1ccc2ncnc(NCc3ccc4c(c3)OCO4)c2c1 [Example 69]
Q: COc1cc2c(NCc3ccc(Cl)c(Cl)c3)ncnc2c(OC)c1OC [Example 19]
Param pair: P , Q . Output: the one whose pIC50 is numerically greater. API: response body contains the label of the selected item.
P
(P: 6.72, Q: 6.41)

====

Target: cGMP-PDE prepared from the swine aeorta (Sus scrofa)
pIC50: −log10 of the molar value.
reported_property: pIC50

compound | pIC50
COc1nc(NCc2ccc3c(c2)OCO3)c2cc(C#N)ccc2n1 [Example 166] | 7.59
CCOC(=O)CNc1nc(NCc2ccc3c(c2)OCO3)c2cc(Cl)ccc2n1 [Example 213] | 7.64
COc1ccc2ncnc(NCc3ccc4c(c3)OCO4)c2c1 [Example 46] | 6.62

A: COC1Cc2cc(CNc3ncnc4ccc(Cl)cc34)ccc2O1 (centres unmarked) [Example 61]
B: N#Cc1ccc2nc(OCCO)nc(NCc3ccc4c(c3)OCO4)c2c1 [Example 169]
Could you tell me which of these two has the smaller pIC50 figure? First: A Second: B API: response body contains the label of the selected item.
A

====

Target: cGMP-PDE prepared from the swine aeorta (Sus scrofa, UniProt A0A287B475)
reported_property: IC50 (nM)

Worked set:
molecule | experimental_value
CN(CCO)c1nc(NCc2ccc3c(c2)OCO3)c2cc(Cl)ccc2n1 [Example 189] | 16
N#Cc1ccc2nc(N3CCC(O)CC3)nc(NCc3ccc4c(c3)OCO4)c2c1 [Example 184] | 6
COCCOc1nc(NCc2ccc3c(c2)OCO3)c2cc(Cl)ccc2n1 [Example 164] | 8

I: COc1nc(NCc2ccc3c(c2)OCO3)c2cc(Cl)ccc2n1 [Example 165]
II: O=C(O)C1CCN(c2nc(NCc3ccc4[nH]cnc4c3)c3cc(Cl)ccc3n2)CC1 [Example 236]
Param pair: I , II . Output: the one whose IC50 is numerically greater. API: response body contains the label of the selected item.
I

====

System: cGMP-PDE prepared from the swine aeorta (Sus scrofa, UniProt A0A287B475) | Read-out: pIC50
pIC50: −log10 of the molar value.
reported_property: pIC50

a: Clc1ccc2ncnc(NCc3ccc4nc[nH]c4c3)c2c1
b: COc1cc2c(NCc3ccc4c(c3)OCO4)nc(/C=C(\C)C(=O)O)nc2c(OC)c1OC
c: CCOC(=O)CCCNc1nc(NCc2ccc3c(c2)OCO3)c2cc(Cl)ccc2n1
d: CCOC(=O)c1ccc2ncnc(NCc3ccc4c(c3)OCO4)c2c1
With regard to pIC50, arrange the entries in ascending order, please. Give your ranking as a list of the labels in the requested order.
d, a, b, c
(d: 6.21, a: 6.74, b: 6.96, c: 8.05)

1: COc1cc2nc(Cl)nc(NCc3ccc4c(c3)OCO4)c2cc1OC
2: N#Cc1ccc2nc(N3CCOCC3)nc(NCc3ccc4c(c3)OCO4)c2c1
Could you tell me which of these two has the smaller pIC50 figure? First: 1 Second: 2 API: response body contains the label of the selected item.
1
(1: 6.10, 2: 8.30)

a: COc1ccc2nc(Cl)nc(NCc3ccc4c(c3)OCO4)c2c1
b: COc1cc2c(N(CCO)Cc3ccc4c(c3)OCO4)nc(Cl)nc2c(OC)c1OC
Param pair: a , b . Output: the one whose pIC50 is numerically greater. API: response body contains the label of the selected item.
a

====

System: cGMP-PDE prepared from the swine aeorta (Sus scrofa, UniProt A0A287B475) | Read-out: IC50
reported_property: IC50 (µM)

A: COc1ccc(CNc2nc(/C=C(/C)C(=O)O)nc3ccc(Cl)cc23)cc1Cl [Example 126]
B: CSc1ccc2ncnc(NCc3ccc(Cl)c(Cl)c3)c2c1 [Example 50]
C: NC(=O)c1ccc2nc(N3CCC(C(=O)O)CC3)nc(NCc3ccc4c(c3)OCO4)c2c1 [Example 245]
With regard to IC50, arrange the entries in ascending order, please. Give your ranking as a list of the labels in the requested order.
A, B, C
(A: 0.001 µM, B: 0.032 µM, C: 0.1 µM)
